- Method Description: PCB body burden in larvae at 5 dpf by gas chromatography
- Assay type: in vivo, zebrafish
- Test Conditions: averaged across 0.1, 1 and 10 µM; larvae at 5 dpf
Readout Kind: % uptake (measured uptake/theoretical uptake × 100) (%)
Your answer is read as %, so omit the unit and give the number.

# input Recorded % uptake (measured uptake/theoretical uptake × 100) of Clc1cc(Cl)c(-c2cc(Cl)c(Cl)cc2Cl)cc1Cl [PCB 153, 2,2',4,4',5,5'-Hexachlorobiphenyl] , please.
# output 1.4

# input Would you mind doing Clc1ccc(-c2ccc(Cl)cc2Cl)cc1 [PCB 28] as well?
# output 4.5

# input Would you mind doing Clc1ccc(-c2ccc(Cl)c(Cl)c2)c(Cl)c1 [PCB 66] as well?
# output 5.6

# input Would you mind doing Clc1ccc(Cl)c(-c2c(Cl)ccc(Cl)c2Cl)c1 [PCB 95, 2,2',3,5',6-pentachlorobiphenyl] as well?
# output 7.4

# input Would you mind doing Clc1cc(Cl)c(-c2ccc(Cl)c(Cl)c2Cl)cc1Cl [PCB 138] as well?
# output 13.8

# input Would you mind doing Clc1cccc(-c2c(Cl)ccc(Cl)c2Cl)c1Cl [PCB 84] as well?
# output 9.2

###

- Test system: larval zebrafish
- Method Description: Larval photomotor behavior test (light/dark locomotor test)
- Type: in vivo
- Test Conditions: sum of absolute [1 − (AUC value/DMSO)] over all concentrations, epochs and 3, 4, 5 dpf
Readout Kind: Behavior score (total change from control)
Note: the reply should be a number with no unit written.

# input Recorded Behavior score (total change from control) of Clc1cc(Cl)c(-c2cc(Cl)c(Cl)cc2Cl)cc1Cl [PCB 153, 2,2',4,4',5,5'-Hexachlorobiphenyl] , please.
# output 23.05

# input Would you mind doing Clc1ccc(Cl)c(-c2c(Cl)ccc(Cl)c2Cl)c1 [PCB 95, 2,2',3,5',6-pentachlorobiphenyl] as well?
# output 81.46

# input Would you mind doing Clc1ccc(-c2ccc(Cl)cc2Cl)cc1 [PCB 28] as well?
# output 10.83

# input Would you mind doing Clc1ccc(-c2ccc(Cl)c(Cl)c2)c(Cl)c1 [PCB 66] as well?
# output 14.39

# input Would you mind doing Clc1cccc(-c2c(Cl)ccc(Cl)c2Cl)c1Cl [PCB 84] as well?
# output 28.93

# input Would you mind doing Clc1cc(Cl)c(-c2ccc(Cl)c(Cl)c2Cl)cc1Cl [PCB 138] as well?
# output 29.32

###

- Measured Target: RYR paralogs found in zebrafish skeletal muscle
- Method Description: [3H]ryanodine ligand binding assay, adult zebrafish tail muscle microsomes
- Test Conditions: relative EC50, concentration causing half-maximum response; PCB 0.1–50 μM
Readout Kind: log10 of EC50 (log10 of the value in µM)
Use the decimal logarithm of EC50 (µM).

# input Recorded log10 of EC50 of Clc1ccc(-c2ccc(Cl)cc2Cl)cc1 [PCB 28] , please.
# output -0.17

# input Would you mind doing Clc1cccc(-c2c(Cl)ccc(Cl)c2Cl)c1Cl [PCB 84] as well?
# output 0.95

# input Would you mind doing Clc1ccc(Cl)c(-c2c(Cl)ccc(Cl)c2Cl)c1 [PCB 95, 2,2',3,5',6-pentachlorobiphenyl] as well?
# output 0.58

# input Would you mind doing Clc1cc(Cl)c(-c2ccc(Cl)c(Cl)c2Cl)cc1Cl [PCB 138] as well?
# output 0.98

# input Would you mind doing Clc1cc(Cl)c(-c2cc(Cl)c(Cl)cc2Cl)cc1Cl [PCB 153, 2,2',4,4',5,5'-Hexachlorobiphenyl] as well?
# output 0.64

###

- Tested on: larval zebrafish
- Method Description: Larval photomotor behavior test (light/dark locomotor test)
- Assay type: in vivo
- Test Conditions: 10 µM; 3 dpf; D2
- Method: At 4 hpf, embryos were treated with 50 µl of 41 mg/ml protease from Streptomyces griseus (P5147, Sigma-Aldrich, St. Louis, MO, United States) in 25 ml of FW for a maximum of 6 min to remove the chorion ([Truong et al., 2011]). […] The distance traveled binned per minute by each larva during the 35-min observation test period was recorded via continuous tracing using a DanioVision system camera with an infrared filter to allow recording in both light and dark conditions. […]
Readout Kind: distance moved relative to vehicle control

# input Recorded distance moved relative to vehicle control of Clc1cc(Cl)c(-c2ccc(Cl)c(Cl)c2Cl)cc1Cl [PCB 138] , please.
# output moved more

# input Would you mind doing Clc1cc(Cl)c(-c2cc(Cl)c(Cl)cc2Cl)cc1Cl [PCB 153, 2,2',4,4',5,5'-Hexachlorobiphenyl] as well?
# output moved more

# input Would you mind doing Clc1cccc(-c2c(Cl)ccc(Cl)c2Cl)c1Cl [PCB 84] as well?
# output moved more

###

So I've got a bunch of molecules here, and I need their EC2X values.
- Test system: RYR paralogs found in zebrafish skeletal muscle
- Method Description: [3H]ryanodine ligand binding assay, adult zebrafish tail muscle microsomes
- Test Conditions: concentration causing two-fold induction in ligand binding vs DMSO control
Note: the reply should be a number with no unit written.

# input Recorded EC2X of Clc1ccc(Cl)c(-c2c(Cl)ccc(Cl)c2Cl)c1 , please.
# output 1.5

# input Would you mind doing Clc1cc(Cl)c(-c2cc(Cl)c(Cl)cc2Cl)cc1Cl as well?
# output 3.88

# input Would you mind doing Clc1cc(Cl)c(-c2ccc(Cl)c(Cl)c2Cl)cc1Cl as well?
# output 4.18

# input Would you mind doing Clc1cccc(-c2c(Cl)ccc(Cl)c2Cl)c1Cl as well?
# output 6.97

###

- System: larval zebrafish
- Method Description: Larval photomotor behavior test (light/dark locomotor test)
- Assay type: in vivo
- Test Conditions: 10 µM; 3 dpf; D1
Readout Kind: distance moved relative to vehicle control

# input Recorded distance moved relative to vehicle control of Clc1cccc(-c2c(Cl)ccc(Cl)c2Cl)c1Cl , please.
# output moved more

# input Would you mind doing Clc1cc(Cl)c(-c2cc(Cl)c(Cl)cc2Cl)cc1Cl as well?
# output moved more

# input Would you mind doing Clc1cc(Cl)c(-c2ccc(Cl)c(Cl)c2Cl)cc1Cl as well?
# output moved more

###

- Tested on: RYR paralogs found in zebrafish skeletal muscle
- Method Description: [3H]ryanodine ligand binding assay, adult zebrafish tail muscle microsomes
- Test Conditions: zebrafish muscle
Readout Kind: RYR activity (in words)

# input Recorded RYR activity (in words) of Clc1cc(Cl)c(-c2cc(Cl)c(Cl)cc2Cl)cc1Cl [PCB 153, 2,2',4,4',5,5'-Hexachlorobiphenyl] , please.
# output moderate

# input Would you mind doing Clc1cc(Cl)c(-c2ccc(Cl)c(Cl)c2Cl)cc1Cl [PCB 138] as well?
# output moderate

# input Would you mind doing Clc1ccc(Cl)c(-c2c(Cl)ccc(Cl)c2Cl)c1 [PCB 95, 2,2',3,5',6-pentachlorobiphenyl] as well?
# output high
